Molecular target: Etv1 Y329S-P427S (human, UniProt P50549 326-429, Y329S;P427S)
Sequence (P50549 326-429 Y329S/P427S): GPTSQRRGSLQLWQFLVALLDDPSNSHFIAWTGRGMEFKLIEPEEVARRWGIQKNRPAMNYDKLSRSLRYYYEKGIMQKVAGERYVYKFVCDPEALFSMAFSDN
Assay: EMSA; 0.1 nM probe; 10 mM TCEP; EMSA: 50 mM Tris-HCl pH 7.5, 50 mM NaCl, 2 mM MgCl2, 0.01% Tween 20, 5% glycerol, 1 h at room temperature; proteins reduced with 10 mM TCEP unless stated; 10% native PAGE
Conditions: protein: recombinant; tags: N-terminal His6 removed by TEV (leaves SM); blunt

[
  {
    "binder": "Etv1ALF/Etv1ALR EMSA probe (dsDNA) DNA 1: ATCTCACCGGAAGTGTAGCA DNA 2: TGCTACACTTCCGGTGAGAT",
    "Kd [nM]": 0.31
  }
]
